Test system: SNB-75 CNS
Assay: NCI-60 one-dose screen, 48 h
Conditions: 10 µM unless noted
About 83,000 compounds went through this panel and 20% of them were active in at least one assay; those are over-represented in the sample as a whole. Calls of active or inactive are those of the source. Rule for the calls: active = growth percent below 10; inactive = the rest.
Classes used: active, inactive

>>> df
                                    molecule  target_desc  assigned_label
 0  NC(N)=Nc1ccc(Oc2cccc(Nc3ccc(Cl)cc3)c2)cn1   SNB-75 CNS        inactive
 1  CCCn1cnc2c(c1=N)C(c1ccc(F)cc1)c1sc3c(C)cccc3c1O2 (configuration not stated)   SNB-75 CNS          active
 2  Nc1ncc(-c2ccc3ncnc(N4CCc5cc(F)c(Cl)cc54)c3c2)cn1   SNB-75 CNS          active
 3  CCO/C=N/C1=C(C#N)C(c2ccc(F)cc2)c2sc3c(CC)cccc3c2O1 (configuration not stated)   SNB-75 CNS          active
 4  O=C(c1ccc(O)c(C(=O)N2Cc3ccc(OCCC[P+](c4ccccc4)(c4ccccc4)c4ccccc4)cc3C2)c1)N1Cc2cccc(F)c2C1   SNB-75 CNS        inactive
 5  O=S(=O)(NCCCNc1nccc(-c2[nH]c(-c3ccccc3)nc2-c2ccc(Cl)c(O)c2)n1)c1ccc(Br)cc1   SNB-75 CNS        inactive
 6  CCNC(=O)N1CCc2cc(OC)c(OCCc3ccc(OC)c(N)c3)cc2C1c1ccc(C)cc1C (configuration not stated)   SNB-75 CNS        inactive
 7  c1cn2c(ccc3nc(-c4cn[nH]c4)c4c(c32)CCCC4)n1   SNB-75 CNS        inactive
 8  COc1cc2c(cc1OC)C(Sc1ccc(C)cc1)c1c(nc(N)c(C#N)c1N)O2 (configuration not stated)   SNB-75 CNS        inactive
 9  CC(=O)C1=C(C)NC(NN)=NC1c1cccc(Cl)c1 (configuration not stated)   SNB-75 CNS        inactive
10  Cc1cc(-c2ccc(Cl)cc2)n(Cc2nnc(SCC(=O)Nc3ccc(S(N)(=O)=O)cc3)n2-c2ccc([N+](=O)[O-])cc2)n1   SNB-75 CNS        inactive
11  Nc1ncc(-c2ccc3ncnc(Nc4cccc(Cl)c4F)c3c2)cn1   SNB-75 CNS        inactive
12  COc1cc(-c2nn(C(C)(C)C)cc2-c2ccnc(NCCCNS(=O)(=O)c3ccc(F)cc3)n2)ccc1Cl   SNB-75 CNS        inactive
13  O=C(O)c1ccc(-n2cc(CNc3cc(F)c(F)c(F)c3)c(-c3ccc(F)cc3)n2)cc1   SNB-75 CNS        inactive
14  CCO/C=N/C1=C(C#N)C(c2ccc(Cl)cc2)c2sc3c(CC)cccc3c2O1 (configuration not stated)   SNB-75 CNS          active
15  CC[C@H](CO)Nc1ccc2ncc(C#Cc3cncc(C(=O)Nc4ccc(CN5CCN(C)CC5)c(C(F)(F)F)c4)c3)n2n1   SNB-75 CNS          active
16  CC(c1ccccc1)N1CSc2nc3ncncc3n2C1 (configuration not stated)   SNB-75 CNS        inactive
17  COc1cc(/C=C2\C(=O)Nc3ccccc32)ccc1OCc1ccc(Cl)cc1   SNB-75 CNS        inactive
18  CCOc1ccc(C(=O)Nc2ncc(Cc3ccc(F)cc3)s2)cc1   SNB-75 CNS        inactive
19  Clc1cccc(/C=N/Nc2nc(N/N=C/c3cccc(Cl)c3Cl)nc(N3CCCCC3)n2)c1Cl   SNB-75 CNS        inactive
20  COc1cc(-c2nc3sccn3c2-c2ccnc(S(C)(=O)=O)n2)ccc1F   SNB-75 CNS        inactive
21  Cn1cc(-c2nc(N)nnc2-c2c[nH]c3ccccc23)c2cc(Br)ccc21   SNB-75 CNS          active
22  Nc1nc(Nc2ccccc2SSc2ccccc2Nc2nc(N)nc(-c3cccc(Br)c3)n2)nc(-c2cccc(Br)c2)n1   SNB-75 CNS        inactive
23  Nc1nc(-c2cccc([N+](=O)[O-])c2)c(N=Nc2ccc([N+](=O)[O-])cc2Cl)s1   SNB-75 CNS          active
24   NS(=O)(=O)c1ccc(-n2cc(CN3CCCCC3)nn2)cc1   SNB-75 CNS        inactive
25  CCCn1cnc2c(c1=N)C(c1ccc(OC)cc1)c1sc3c(C)cccc3c1O2 (configuration not stated)   SNB-75 CNS        inactive
26  CCNC(=O)N1CCc2cc(OC)c(OCCc3ccc(OC)nc3)cc2C1c1ccc(C)cc1C (configuration not stated)   SNB-75 CNS        inactive
27  COc1cc2nc(Cl)nc(Nc3cccc(C4=Nc5c(N)nc(N)nc5NC(c5ccc(F)cc5)C4)c3)c2cc1OC (configuration not stated)   SNB-75 CNS        inactive
28  O=C1[C@H]2Cc3c([nH]c4ccccc34)[C@@H](c3ccc(Cl)cc3)N2C(=O)CN1C1CCN(Cc2ccccc2)CC1   SNB-75 CNS        inactive
29  CC(C)(C)c1ccc(C(=O)Nc2nc3ccc(O)cc3s2)cc1   SNB-75 CNS        inactive
30  Nc1nc(Nc2ccccc2SSc2ccccc2Nc2nc(N)nc(-c3ccccc3)n2)nc(-c2ccccc2)n1   SNB-75 CNS        inactive
31  O=C1[C@@H]2Cc3c([nH]c4ccccc34)[C@H](c3c(Cl)cccc3Cl)N2C(=O)CN1C1CCN(CC2CCCCC2)CC1   SNB-75 CNS        inactive

----------
Test system: UACC-257 melanoma
Experiment: NCI-60 one-dose screen, 48 h (100 = growth as untreated, 0 = no growth, -100 = all killed)
Conditions: 10 µM unless noted
Compounds without any hit were thinned out: in the full panel of roughly 83,000, 20% have a hit.
List of growth values.
outcome measure: growth (%)

>>> df
                                    compound  outcome_measure  readout_number
 0  CN(C)CCCOc1ccc2c(c1)CN(C(=O)c1cc(C(=O)N3Cc4cccc(F)c4C3)ccc1O)C2           growth             108
 1  Cc1nn(-c2ccccc2)c2ncnc(N/N=C/c3cccc(O)c3)c12           growth            62.8
 2  COc1cc(/C=C2\C(=O)Nc3ccccc32)ccc1OCc1ccc(F)cc1           growth             118
 3  COc1cc(/C=N/NC(=O)c2cn(C3CC3)c3c(OC)c(N4CC5CCCNC5C4)c(F)cc3c2=O)ccc1O (centres undefined)           growth             104
 4  CN1CCN(c2ccc(/C=N/Nc3nc4ccccc4c(=O)n3-c3ccccc3)cc2)CC1           growth             114
 5  NS(=O)(=O)c1ccc(-n2cc(-c3cccc(NC(=O)c4ccc(N5CCOCC5)c(C(F)(F)F)c4)c3)nn2)cc1           growth            82.5
 6  Cc1cc(-c2ccc(Cl)cc2)n(Cc2nnc(SCC(=O)Nc3ccc(S(N)(=O)=O)cc3)n2C2CCCCC2)n1           growth             101
 7  O=C(CSc1nc2ccccc2c(=O)n1-c1ccccc1)Nc1cccc(C(=O)/C=C/c2ccccc2Cl)c1           growth             112
 8  CCCCCc1ccc(S(=O)(=O)Nc2cc(-c3csc(NC(=O)CN4CCN(C)CC4)n3)ccc2OC)cc1           growth           -49.2
 9  NS(=O)(=O)c1ccc(Nc2nc(Nc3ccccc3)nc3nnc(SCC(=O)NC4CCCCC4)n23)cc1           growth             104
10  COc1cc(-c2nn(C(C)(C)C)cc2-c2ccnc(NCCCNS(=O)(=O)c3ccc(F)cc3)n2)ccc1Cl           growth            93.3
11  CCCSc1nc(Nc2ccc(/C(C)=N\NC(N)=S)cc2)c(C#N)c(-c2ccccc2)n1           growth             105
12  NC(N)=Nc1ccc(Oc2ccc(Nc3ccc(Cl)c(C(F)(F)F)c3)cc2)cc1           growth            68.3
13  COc1ccc(C2CC(c3cccc(Nc4nc(Cl)nc5cc(OC)c(OC)cc45)c3)=Nc3c(N)nc(N)nc3N2)cc1 (centres undefined)           growth             106
14  Cc1cc(C)c(N2C(=O)CC(Nc3ccc(Cl)cc3Cl)C2=O)c(C)c1 (centres undefined)           growth             103
15  NC(N)=Nc1ccc(Oc2cccc(Nc3ccc(Cl)cc3)c2)cn1           growth            28.4
16  CNC(=O)c1cc(Oc2ccc3nc(NC(=O)c4cccc(OC(F)(F)F)c4)sc3c2)ccn1           growth            77.6
17  CC1=NC2=NC(=O)/C(=C3/N=C(C)C=C(c4ccccc4)N3N)NN2C(c2ccccc2)=C1           growth             109
18  COc1cc(Cn2cc3c(c2)-c2onc(CN4CCOCC4)c2CC3)cc(OC)c1OC           growth             101
19  COc1ccc(Oc2ccc(/C=N/NC(=O)CSc3nc4ccccc4c(=O)n3-c3ccc(Cl)cc3)cc2)cc1           growth            94.7
20  O=C(CSc1nc2ccccc2c(=O)n1-c1ccccc1)Nc1ccc(-c2nc3ccc([N+](=O)[O-])cc3[nH]2)cc1           growth            95.8
21  N#Cc1c(NC(=O)c2cccc(C(F)(F)F)c2F)sc2c1CCC(=O)C2           growth           -36.3
22  COc1cc(-c2nc(SC(C)C)n(C(C)C)c(=O)c2C#N)ccc1OCc1ccccc1           growth             101
23  Cc1ccc2c(c1)Oc1nc(N)c(C#N)c(N)c1C2Sc1ccc(F)cc1 (centres undefined)           growth           -94.4
